B1: HDV Ribozyme (parent)
chain: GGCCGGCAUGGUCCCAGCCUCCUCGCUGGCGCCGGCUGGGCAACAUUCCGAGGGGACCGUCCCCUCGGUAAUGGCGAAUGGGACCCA

# Variants of: B1
# protocol.description: self-cleavage, relative activity (ratio to wild type); higher = more cleavage; co-transcriptional
Listed next: entries and their corresponding self-cleavage.

{"variant.name": "C49G A70C", "self-cleavage": 0.415}
{"variant.name": "G50U C86U", "self-cleavage": 0.751}
{"variant.name": "C62U U79G", "self-cleavage": 0.831}
{"variant.name": "C7A C19U", "self-cleavage": 0.0906}
{"variant.name": "C26G G34U", "self-cleavage": 0.525}
{"variant.name": "G2U A45C", "self-cleavage": 0}
{"variant.name": "U23A G40C", "self-cleavage": 0.181}
{"variant.name": "C30G A77G", "self-cleavage": 0.189}
{"variant.name": "C48U C66A", "self-cleavage": 0.923}
{"variant.name": "A42G C75G", "self-cleavage": 0}
{"variant.name": "C36U G73C", "self-cleavage": 0.161}
{"variant.name": "C41A C44A", "self-cleavage": 0.404}
{"variant.name": "C4U C64G", "self-cleavage": 0.538}
{"variant.name": "G6C U20C", "self-cleavage": 0.0923}
{"variant.name": "U27G G55U", "self-cleavage": 1}
{"variant.name": "U23C U65A", "self-cleavage": 1.09}
{"variant.name": "C18U C64G", "self-cleavage": 0.736}
{"variant.name": "C14A A42C", "self-cleavage": 0.0369}
{"variant.name": "C26A C75A", "self-cleavage": 0.0415}
{"variant.name": "G53U U72A", "self-cleavage": 0.798}
{"variant.name": "C26A C84U", "self-cleavage": 0.854}
{"variant.name": "C3U G54C", "self-cleavage": 0.636}
{"variant.name": "U47C A78C", "self-cleavage": 0.0898}
{"variant.name": "C26U C44U", "self-cleavage": 1.01}
{"variant.name": "G82A C85G", "self-cleavage": 0.339}
{"variant.name": "C44G A45U", "self-cleavage": 0.776}
{"variant.name": "C33G C61A", "self-cleavage": 0.193}
{"variant.name": "C18G A77U", "self-cleavage": 0}
{"variant.name": "G17U C36A", "self-cleavage": 0.0665}
{"variant.name": "C26A A42C", "self-cleavage": 0.227}
{"variant.name": "G1C G40U", "self-cleavage": 0.189}
{"variant.name": "C57A C75U", "self-cleavage": 0.0978}
{"variant.name": "G73U C85G", "self-cleavage": 0.437}
{"variant.name": "G5U G17C", "self-cleavage": 0}
{"variant.name": "C58A G81U", "self-cleavage": 0.397}
{"variant.name": "G10U C85G", "self-cleavage": 1.03}
{"variant.name": "G10A C48A", "self-cleavage": 0.739}
{"variant.name": "A45G A78G", "self-cleavage": 0.617}
{"variant.name": "U23G C61U", "self-cleavage": 0.923}
{"variant.name": "C13A C44G", "self-cleavage": 0}
{"variant.name": "G40U G52U", "self-cleavage": 0.576}
{"variant.name": "U72A G73U", "self-cleavage": 0.612}
{"variant.name": "A70C G73A", "self-cleavage": 0.407}
{"variant.name": "C36U C62G", "self-cleavage": 0.222}
{"variant.name": "C19A G29C", "self-cleavage": 0.0941}
